In this section we review reported IC50 values for a set of compounds.
MEASUREMENT TARGET: Alpha glucosidase (Homo sapiens, UniProt O43451+P10253+P14410+Q2M2H8)
ASSAY NAME: Inhibition of Alpha-glucosidase (unknown origin)
Type: protein assay

[
  {
    "SUBSTANCE SMILES": "O=c1ccc2c(-c3c(O)c(O)cc4ccc(=O)oc34)c(O)c(O)cc2o1",
    "IC50, µM": 17.6
  },
  {
    "SUBSTANCE SMILES": "O=c1ccc2cc(O)c(O)c(-c3c(O)c(O)cc4ccc(=O)oc34)c2o1",
    "IC50, µM": 6.4
  },
  {
    "SUBSTANCE SMILES": "O=c1ccc2c(-c3c(O)c(O)c(-c4c(O)c(O)cc5ccc(=O)oc45)c4oc(=O)ccc34)c(O)c(O)cc2o1",
    "IC50, µM": 4.2
  }
]

====

MEASUREMENT TARGET: Alpha glucosidase (Homo sapiens, UniProt O43451+P10253+P14410+Q2M2H8)
ASSAY NAME: Inhibition of Alpha-glucosidase (unknown origin)
Format: protein assay

[
  {
    "SUBSTANCE SMILES": "O=c1ccc2c(-c3c(O)c(O)c(-c4c(O)c(O)cc5oc(=O)ccc45)c4oc(=O)ccc34)c(O)c(O)cc2o1",
    "CENSORING QUALIFIER": "=",
    "IC50 [µM]": 4.7
  },
  {
    "SUBSTANCE SMILES": "O=c1ccc2c(-c3c(O)c(O)c(-c4c(O)c(O)c(-c5c(O)c(O)cc6oc(=O)ccc56)c5oc(=O)ccc45)c4oc(=O)ccc34)c(O)c(O)cc2o1",
    "CENSORING QUALIFIER": "=",
    "IC50 [µM]": 2.3
  },
  {
    "SUBSTANCE SMILES": "O=c1ccc2cc(O)c(O)cc2o1",
    "CENSORING QUALIFIER": ">",
    "IC50 [µM]": 500
  },
  {
    "SUBSTANCE SMILES": "O=c1ccc2c(Oc3cc4oc(=O)ccc4c(-c4c(O)c(O)c(-c5c(O)c(O)c(-c6c(O)c(O)cc7oc(=O)ccc67)c6ccc(=O)oc56)c5ccc(=O)oc45)c3O)c(O)c(O)cc2o1",
    "CENSORING QUALIFIER": "=",
    "IC50 [µM]": 0.7
  }
]

====

MEASUREMENT TARGET: Alpha glucosidase (Homo sapiens, UniProt O43451+P10253+P14410+Q2M2H8)
ASSAY NAME: Competitive inhibition of Alpha-glucosidase (unknown origin) by Lineweaver-Burk plot analysis
Format: protein assay

[
  {
    "SUBSTANCE SMILES": "O=c1ccc2c(Oc3cc4oc(=O)ccc4c(-c4c(O)c(O)c(-c5c(O)c(O)c(-c6c(O)c(O)cc7oc(=O)ccc67)c6ccc(=O)oc56)c5ccc(=O)oc45)c3O)c(O)c(O)cc2o1",
    "UOM": "nM",
    "Ki": 200
  },
  {
    "SUBSTANCE SMILES": "O=c1ccc2c(-c3c(O)c(O)cc4ccc(=O)oc34)c(O)c(O)cc2o1",
    "UOM": "nM",
    "Ki": 10100
  },
  {
    "SUBSTANCE SMILES": "O=c1ccc2c(-c3c(O)c(O)c(-c4c(O)c(O)c(-c5c(O)c(O)cc6oc(=O)ccc56)c5oc(=O)ccc45)c4oc(=O)ccc34)c(O)c(O)cc2o1",
    "UOM": "nM",
    "Ki": 900
  },
  {
    "SUBSTANCE SMILES": "O=c1ccc2cc(O)c(O)c(-c3c(O)c(O)cc4ccc(=O)oc34)c2o1",
    "UOM": "nM",
    "Ki": 3400
  },
  {
    "SUBSTANCE SMILES": "O=c1ccc2c(-c3c(O)c(O)c(-c4c(O)c(O)cc5oc(=O)ccc45)c4oc(=O)ccc34)c(O)c(O)cc2o1",
    "UOM": "nM",
    "Ki": 1900
  }
]
